system: α2-adrenergic receptor (Rattus norvegicus)
Sequence (P22909 1-465): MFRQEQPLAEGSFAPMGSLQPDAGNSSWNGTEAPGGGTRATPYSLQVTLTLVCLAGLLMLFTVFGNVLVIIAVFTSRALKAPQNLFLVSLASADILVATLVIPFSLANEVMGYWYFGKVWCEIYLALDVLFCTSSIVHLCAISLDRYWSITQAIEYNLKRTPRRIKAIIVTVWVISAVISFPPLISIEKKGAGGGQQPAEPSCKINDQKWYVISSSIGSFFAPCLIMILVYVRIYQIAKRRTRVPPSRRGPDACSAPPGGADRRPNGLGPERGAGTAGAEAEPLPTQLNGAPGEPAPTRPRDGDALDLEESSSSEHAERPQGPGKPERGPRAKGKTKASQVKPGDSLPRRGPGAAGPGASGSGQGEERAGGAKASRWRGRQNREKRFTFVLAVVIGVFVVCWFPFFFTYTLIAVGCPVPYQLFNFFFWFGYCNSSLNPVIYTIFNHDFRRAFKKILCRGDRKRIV
property: pKi
For clarity, pKi is expressed as the negative log10 of concentration in mol/L.

Ask: Which value of pKi has been reported for CN1CC2CCc3[nH]c4ccccc4c3C2C1 (single isomer, unassigned) in the records?
Result: 8.03
